TEST_SUMMARY: Autosampler stability of ready for injection samples
Type: physicochemical, human
TEST_CONDITIONS: validation standard ULOV
RECORDED_ENDPOINT: Autosampler (24h, 4°C) Accuracy [%] (%)

CHEMICAL_STRING | RECORDED_ENDPOINT | RESULT_NUMBER
Cc1nc(Nc2ncc(C(=O)Nc3c(C)cccc3Cl)s2)cc(N2CCN(CCO)CC2)n1 | Autosampler (24h, 4°C) Accuracy [%] | 102.6
COc1cc2ncnc(Nc3ccc(F)c(Cl)c3)c2cc1OCCCN1CCOCC1 | Autosampler (24h, 4°C) Accuracy [%] | 96.7
COc1cc2nccc(Oc3ccc(NC(=O)NC4CC4)c(Cl)c3)c2cc1C(N)=O | Autosampler (24h, 4°C) Accuracy [%] | 102.6
C#Cc1cccc(Nc2ncnc3cc(OCCOC)c(OCCOC)cc23)c1 | Autosampler (24h, 4°C) Accuracy [%] | 103.4
COC(=O)N[C@@H](C)CNc1nccc(-c2cn(C(C)C)nc2-c2cc(Cl)cc(NS(C)(=O)=O)c2F)n1 | Autosampler (24h, 4°C) Accuracy [%] | 100.5

###

Short-time stability (24h, 4°C, without daylight) Accuracy [%] listing for selected compounds.
TEST_SUMMARY: Short-term stability in spiked pooled human plasma (bench-top, 4 °C, 56 °C)
TEST_CONDITIONS: validation standard MOV
RECORDED_ENDPOINT: Short-time stability (24h, 4°C, without daylight) Accuracy [%] (%)

COMPOUND | RESULT_NUMBER
C=CC(=O)Nc1cc(Nc2nccc(-c3cn(C)c4ccccc34)n2)c(OC)cc1N(C)CCN(C)C | 96.3
Nc1cccc2c1C(=O)N(C1CCC(=O)NC1=O)C2=O (stereo not shown) [Pomalidomide] | 96.7
CN(C)C(=O)c1cc2cnc(Nc3ccc(N4CCNCC4)cn3)nc2n1C1CCCC1 | 98.8
COC(=O)c1ccc2c(c1)NC(=O)/C2=C(\Nc1ccc(N(C)C(=O)CN2CCN(C)CC2)cc1)c1ccccc1 | 100.1
Cc1ccc(NC(=O)c2ccc(CN3CCN(C)CC3)cc2)cc1Nc1nccc(-c2cccnc2)n1 | 102.2
COc1cc2nccc(Oc3ccc(NC(=O)C4(C(=O)Nc5ccc(F)cc5)CC4)cc3)c2cc1OC [Cabozantinib] | 102.2
O=C(Nc1cnn2ccc(N3CCC[C@@H]3c3cc(F)ccc3F)nc12)N1CC[C@H](O)C1 | 99.9
CNCc1ccc(-c2[nH]c3cc(F)cc4c3c2CCNC4=O)cc1 | 102.0
Nc1cccc2c1CN(C1CCC(=O)NC1=O)C2=O (stereo not shown) [Lenalidomide] | 97.8
CCC1=C[C@@H]2CN(C1)Cc1c([nH]c3ccccc13)[C@@](C(=O)OC)(c1cc3c(cc1OC)N(C)[C@H]1[C@@](O)(C(=O)OC)[C@H](OC(C)=O)[C@]4(CC)C=CCN5CC[C@]31[C@@H]54)C2 | 93.6
Cc1ccc(C(=O)Nc2ccc(CN3CCN(C)CC3)c(C(F)(F)F)c2)cc1C#Cc1cnc2cccnn12 | 100.1
Cn1cnc2c(F)c(Nc3ccc(Br)cc3F)c(C(=O)NOCCO)cc21 | 94.8
CC(C)(C)c1nc(-c2cccc(NS(=O)(=O)c3c(F)cccc3F)c2F)c(-c2ccnc(N)n2)s1 | 100.0
COc1cc2c(Nc3ccc(Br)cc3F)ncnc2cc1OCC1CCN(C)CC1 | 101.6
N#CC[C@H](C1CCCC1)n1cc(-c2ncnc3[nH]ccc23)cn1 | 100.3
CCCS(=O)(=O)Nc1ccc(F)c(C(=O)c2c[nH]c3ncc(-c4ccc(Cl)cc4)cc23)c1F | 100.4
NC(=O)c1cccc2cn(-c3ccc([C@@H]4CCCNC4)cc3)nc12 | 100.2
CC1(C)CCC(CN2CCN(c3ccc(C(=O)NS(=O)(=O)c4ccc(NCC5CCOCC5)c([N+](=O)[O-])c4)c(Oc4cnc5[nH]ccc5c4)c3)CC2)=C(c2ccc(Cl)cc2)C1 | 100.5
CO[C@@H]1[C@H](N(C)C(=O)c2ccccc2)C[C@H]2O[C@]1(C)n1c3ccccc3c3c4c(c5c6ccccc6n2c5c31)C(=O)NC4 | 103.7

###

Long-term stability, 3 month, -80°C Accuracy [%] by entry:
TEST_SUMMARY: Long-term stability in spiked pooled human plasma
TEST_CONDITIONS: validation standard 2xLLOV
RECORDED_ENDPOINT: Long-term stability, 3 month, -80°C Accuracy [%] (%)

MOLECULE | RESULT_NUMBER
CNCc1ccc(-c2[nH]c3cc(F)cc4c3c2CCNC4=O)cc1 [Rucaparib] | 94.7
CCN1CCN(Cc2ccc(Nc3ncc(F)c(-c4cc(F)c5nc(C)n(C(C)C)c5c4)n3)nc2)CC1 [Abemaciclib] | 103.4
CS(=O)(=O)c1ccc(C(=O)Nc2ccc(Cl)c(-c3ccccn3)c2)c(Cl)c1 [Vismodegib] | 99.6
CCOc1cc2ncc(C#N)c(Nc3ccc(OCc4ccccn4)c(Cl)c3)c2cc1NC(=O)/C=C/CN(C)C [Neratinib] | 90.2
COc1cc2ncnc(Nc3ccc(F)c(Cl)c3)c2cc1OCCCN1CCOCC1 [Gefitinib] | 101.3
CN(C)C(=O)c1cc2cnc(Nc3ccc(N4CCNCC4)cn3)nc2n1C1CCCC1 [Ribociclib] | 106.4
Cc1ccc(NC(=O)c2ccc(CN3CCN(C)CC3)cc2)cc1Nc1nccc(-c2cccnc2)n1 [Imatinib] | 72.7
Cn1cnc2c(F)c(Nc3ccc(Br)cc3F)c(C(=O)NOCCO)cc21 [Binimetinib] | 104.4
Cc1[nH]c2ccccc2c1CCNCc1ccc(/C=C/C(=O)NO)cc1 [Panobinostat] | 67.6
CO[C@@H]1[C@H](N(C)C(=O)c2ccccc2)C[C@H]2O[C@]1(C)n1c3ccccc3c3c4c(c5c6ccccc6n2c5c31)C(=O)NC4 [Midostaurin] | 106.8
Cc1cn(-c2cc(NC(=O)c3ccc(C)c(Nc4nccc(-c5cccnc5)n4)c3)cc(C(F)(F)F)c2)cn1 [Nilotinib] | 92.2
COC(=O)N[C@@H](C)CNc1nccc(-c2cn(C(C)C)nc2-c2cc(Cl)cc(NS(C)(=O)=O)c2F)n1 [Encorafenib] | 95.2
COc1cc2ncnc(Nc3ccc(F)c(Cl)c3)c2cc1NC(=O)/C=C/CN1CCCCC1 [Dacomitinib] | 94.7
COc1cc2nccc(Oc3ccc(NC(=O)Nc4cc(C)on4)c(Cl)c3)c2cc1OC [Tivozanib] | 95.2
C[C@@H](Oc1cc(-c2cnn(C3CCNCC3)c2)cnc1N)c1c(Cl)ccc(F)c1Cl [Crizotinib] | 90.2
CCCS(=O)(=O)Nc1ccc(F)c(C(=O)c2c[nH]c3ncc(-c4ccc(Cl)cc4)cc23)c1F [Vemurafenib] | 105.9
NC(=O)c1cccc2cn(-c3ccc([C@@H]4CCCNC4)cc3)nc12 [Niraparib] | 95.7
C[C@H]1Oc2cc(cnc2N)-c2c(nn(C)c2C#N)CN(C)C(=O)c2ccc(F)cc21 [Lorlatinib] | 90.8

###

Attribute: Freeze-Thaw Accuracy [%]
TEST_SUMMARY: Freeze-thaw stability in spiked pooled human plasma
Format: physicochemical
TEST_CONDITIONS: validation standard 2xLLOV

MOLECULE | Freeze-Thaw Accuracy [%], %
CN(C)C(=O)c1cc2cnc(Nc3ccc(N4CCNCC4)cn3)nc2n1C1CCCC1 [Ribociclib] | 103.9
Cc1cc(Nc2ncc(Cl)c(Nc3ccccc3S(=O)(=O)C(C)C)n2)c(OC(C)C)cc1C1CCNCC1 [Ceritinib] | 96.9
CN(C)C/C=C/C(=O)Nc1cc2c(Nc3ccc(F)c(Cl)c3)ncnc2cc1O[C@H]1CCOC1 [Afatinib] | 100.0
CC[C@H](Nc1ncnc2[nH]cnc12)c1nc2cccc(F)c2c(=O)n1-c1ccccc1 [Idelalisib] | 98.2
COc1cc2nccc(Oc3ccc(NC(=O)C4(C(=O)Nc5ccc(F)cc5)CC4)cc3)c2cc1OC [Cabozantinib] | 99.6
C[C@H]1Oc2cc(cnc2N)-c2c(nn(C)c2C#N)CN(C)C(=O)c2ccc(F)cc21 [Lorlatinib] | 95.0
COc1cc2c(Nc3ccc(Br)cc3F)ncnc2cc1OCC1CCN(C)CC1 [Vandetanib] | 97.2
CCCS(=O)(=O)Nc1ccc(F)c(C(=O)c2c[nH]c3ncc(-c4ccc(Cl)cc4)cc23)c1F [Vemurafenib] | 98.2
CO[C@@H]1[C@H](N(C)C(=O)c2ccccc2)C[C@H]2O[C@]1(C)n1c3ccccc3c3c4c(c5c6ccccc6n2c5c31)C(=O)NC4 [Midostaurin] | 95.9
CNCc1ccc(-c2[nH]c3cc(F)cc4c3c2CCNC4=O)cc1 [Rucaparib] | 93.7
CNC(=O)c1cc(Oc2ccc(NC(=O)Nc3ccc(Cl)c(C(F)(F)F)c3)c(F)c2)ccn1 [Regorafenib] | 97.1
Cc1cn(-c2cc(NC(=O)c3ccc(C)c(Nc4nccc(-c5cccnc5)n4)c3)cc(C(F)(F)F)c2)cn1 [Nilotinib] | 98.5
C[C@]12CC[C@H](O)CC1=CC[C@@H]1[C@@H]2CC[C@]2(C)C(c3cccnc3)=CC[C@@H]12 [Abiraterone] | 104.5
Cc1ccc(Nc2nccc(N(C)c3ccc4c(C)n(C)nc4c3)n2)cc1S(N)(=O)=O [Pazopanib] | 103.5
COc1cc2nccc(Oc3ccc(NC(=O)Nc4cc(C)on4)c(Cl)c3)c2cc1OC [Tivozanib] | 96.8
Cc1nc(Nc2ncc(C(=O)Nc3c(C)cccc3Cl)s2)cc(N2CCN(CCO)CC2)n1 [Dasatinib] | 99.1
N#CC[C@H](C1CCCC1)n1cc(-c2ncnc3[nH]ccc23)cn1 [Ruxolitinib] | 94.7
C=CC(=O)Nc1cc(Nc2nccc(-c3cn(C)c4ccccc34)n2)c(OC)cc1N(C)CCN(C)C [Osimertinib] | 93.7
Nc1cccc2c1C(=O)N(C1CCC(=O)NC1=O)C2=O (stereo not shown) [Pomalidomide] | 90.9
COc1cc2ncnc(Nc3ccc(F)c(Cl)c3)c2cc1OCCCN1CCOCC1 [Gefitinib] | 97.6
COC(=O)N[C@@H](C)CNc1nccc(-c2cn(C(C)C)nc2-c2cc(Cl)cc(NS(C)(=O)=O)c2F)n1 [Encorafenib] | 94.9
CC(C)(C)c1nc(-c2cccc(NS(=O)(=O)c3c(F)cccc3F)c2F)c(-c2ccnc(N)n2)s1 [Dabrafenib] | 97.8
CC(=O)Nc1cccc(-n2c(=O)n(C3CC3)c(=O)c3c(Nc4ccc(I)cc4F)n(C)c(=O)c(C)c32)c1 [Trametinib] | 97.6
COc1cc2nccc(Oc3ccc(NC(=O)NC4CC4)c(Cl)c3)c2cc1C(N)=O [Lenvatinib] | 102.5
CNC(=O)c1ccc(N2C(=S)N(c3ccc(C#N)c(C(F)(F)F)c3)C(=O)C2(C)C)cc1F [Enzalutamide] | 97.8
CNC(=O)c1ccccc1Sc1ccc2c(/C=C/c3ccccn3)n[nH]c2c1 [Axitinib] | 108.3
CCC1=C[C@@H]2CN(C1)Cc1c([nH]c3ccccc13)[C@@](C(=O)OC)(c1cc3c(cc1OC)N(C)[C@H]1[C@@](O)(C(=O)OC)[C@H](OC(C)=O)[C@]4(CC)C=CCN5CC[C@]31[C@@H]54)C2 [Vinorelbine] | 105.8
O=C1CCC(N2C(=O)c3ccccc3C2=O)C(=O)N1 (stereo not shown) [Thalidomide] | 78.3
O=c1[nH]c(=O)n([C@H]2C[C@H](O)[C@@H](CO)O2)cc1C(F)(F)F [Trifluridine] | 101.6
C[C@@H](Oc1cc(-c2cnn(C3CCNCC3)c2)cnc1N)c1c(Cl)ccc(F)c1Cl [Crizotinib] | 94.8
O=C(c1ccc(F)c(F)c1Nc1ccc(I)cc1F)N1CC(O)([C@@H]2CCCCN2)C1 [Cobimetinib] | 98.6
